The values you see were collected from patent US11771738B2.

Provide the reported DiMf/DiL4 of each item.
- System: D. immitis L4 larvae
- method: Dirofilaria immitis, L4 Stage (DiL4) In Vitro Assay
- Type: cell-based
- run_conditions: larval stage selectivity, ratio of DiMf MED to DiL4 MED
Answers are plain numbers.

chemical_string=Cc1ncccc1Cc1ccc(C[C@@H]2OC(=O)[C@H](CC(C)C)N(C)C(=O)[C@@H](C)OC(=O)[C@@H](CC(C)C)N(C)C(=O)[C@@H](Cc3ccc(Cc4cccnc4C)cc3)OC(=O)[C@@H](CC(C)C)N(C)C(=O)[C@@H](C)OC(=O)[C@H](CC(C)C)N(C)C2=O)cc1 parameter=DiMf/DiL4 measured_number=6.7

Now for the molecule whose DiMf/DiL4 we want.
Fill in: DiMf/DiL4 of CC(C)C[C@H]1C(=O)O[C@H](Cc2ccc(Cc3coc(C#N)c3)cc2)C(=O)N(C)[C@@H](CC(C)C)C(=O)O[C@H](C)C(=O)N(C)[C@@H](CC(C)C)C(=O)O[C@H](Cc2ccc(Cc3coc(C#N)c3)cc2)C(=O)N(C)[C@@H](CC(C)C)C(=O)O[C@H](C)C(=O)N1C is ___ 50
